# credit: the supplement of paper PMC10065799

biological target: MERTK (UniProt Q12866); assay: phosphorylation enrichment, bacterial display (enrichment ratio); higher = better substrate or ligand; peptides without Tyr show the background;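 further: 11-residue human phosphosite peptides and single-mutation variants displayed on the E. coli surface, counted by deep sequencing, each peptide's frequency after selection divided by its frequency in the unselected input library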;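 further: frequency after pTyr selection over input frequency; kinase dosed for 20-30% of maximal phosphorylation in three min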
Sequence (Q12866 whole entry, looked up): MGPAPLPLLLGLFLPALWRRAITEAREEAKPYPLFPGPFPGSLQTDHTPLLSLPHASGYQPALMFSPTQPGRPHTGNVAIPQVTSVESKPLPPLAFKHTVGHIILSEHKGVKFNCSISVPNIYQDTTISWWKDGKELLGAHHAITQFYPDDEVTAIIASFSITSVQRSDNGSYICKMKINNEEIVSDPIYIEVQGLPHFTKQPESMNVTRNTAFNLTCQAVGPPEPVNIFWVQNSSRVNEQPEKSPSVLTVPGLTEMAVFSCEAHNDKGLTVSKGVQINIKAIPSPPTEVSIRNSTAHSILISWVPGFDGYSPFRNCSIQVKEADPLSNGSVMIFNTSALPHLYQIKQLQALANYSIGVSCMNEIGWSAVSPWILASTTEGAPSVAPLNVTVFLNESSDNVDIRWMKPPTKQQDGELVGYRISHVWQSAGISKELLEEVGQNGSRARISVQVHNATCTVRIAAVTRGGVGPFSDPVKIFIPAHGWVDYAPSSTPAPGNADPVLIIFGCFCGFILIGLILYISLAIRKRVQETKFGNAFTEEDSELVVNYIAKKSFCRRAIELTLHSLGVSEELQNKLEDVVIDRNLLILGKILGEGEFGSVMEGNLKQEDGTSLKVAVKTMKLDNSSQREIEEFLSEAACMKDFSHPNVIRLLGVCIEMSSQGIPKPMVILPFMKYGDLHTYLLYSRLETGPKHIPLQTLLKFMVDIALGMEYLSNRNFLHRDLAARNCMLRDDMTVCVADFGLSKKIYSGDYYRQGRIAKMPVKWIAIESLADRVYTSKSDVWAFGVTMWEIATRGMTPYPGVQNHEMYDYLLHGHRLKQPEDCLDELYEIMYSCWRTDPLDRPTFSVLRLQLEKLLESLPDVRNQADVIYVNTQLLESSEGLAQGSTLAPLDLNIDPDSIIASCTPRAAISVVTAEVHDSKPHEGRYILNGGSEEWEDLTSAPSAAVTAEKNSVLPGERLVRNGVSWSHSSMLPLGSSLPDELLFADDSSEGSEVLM
MEASUREMENT_KIND: phosphorylation enrichment

In: Name the recorded phosphorylation enrichment of the sequence listed here: GFSRHCEDGFP [CTNND1_Y217_Y217C_YF]
Out: 0.402

In: Give phosphorylation enrichment for the following sequence: ENELTYYCCKK [CD59_Y86]
Out: 1.08

In: Give recorded phosphorylation enrichment. NELTFYCCKKD [CD59_Y87_YF]
Out: 0.466

In: Indicate the recorded phosphorylation enrichment value for this sequence: SPYAVYLFFTF [RPGRIP1_Y826_R827L]
Out: 0.533

In: Report measured phosphorylation enrichment; entry is FLAATYPTLGQ [NF1_Y2508_V2511L_YF]
Out: 0.356

In: Using known records, supply phosphorylation enrichment for HRGSLYLAIEY [TEK_Y899_Y897S]
Out: 0.834

In: Tell me its phosphorylation enrichment given FVSIVYNDFGE [TSC2_Y1650_S1653F] as the entry.
Out: 0.422

In: Give phosphorylation enrichment for the following sequence: AASTDYFKRGD [PDHA1_Y242_YF]
Out: 0.325

In: Determine from records and report phosphorylation enrichment for IEELTYVIKQD [STX5_Y137_I138V]
Out: 0.363

In: Read the entry AGARMYGVLPW [PLP1_Y207_D203G] and write its reported phosphorylation enrichment.
Out: 0.842

In: For the sequence GLDGRYLLRDS [SH2D1A_Y29_S28R] , give its measured phosphorylation enrichment value.
Out: 0.41

In: Quickly give me recorded phosphorylation enrichment for SLDLSYYTTSS [EMD_Y181_P183T]
Out: 0.614

In: Tell me phosphorylation enrichment reported for FPLELYERVRM [PRKCG_Y312_YF]
Out: 0.444

In: Quote phosphorylation enrichment reported for LNSFIYSLRNR [OR1A1_Y288_P285S] please.
Out: 0.733

In: Give phosphorylation enrichment for the following sequence: MDDDQYALLTA [EFCAB6_Y675_T680A]
Out: 0.592

In: Give the reported value of phosphorylation enrichment for this record: NAPNSYGRRPT [CDKN2A_Y44_I49T]
Out: 0.593

In: State, in one line, measured phosphorylation enrichment of KVVVPYEPPEV [TP53_Y220_S215K]
Out: 0.402

In: Report phosphorylation enrichment, nothing else, for this sequence: AEYGLYAAMVR [VSX2_Y222_G223A]
Out: 6.46

In: // Input: PQAVRYIYTID [DCX_Y103_G100A] . Output its phosphorylation enrichment only.
Out: 1.72

In: Quickly give me recorded phosphorylation enrichment for LQTYHYHGHSM [PDHA1_Y289_R288H]
Out: 0.911

In: Fill in reported phosphorylation enrichment for this entry: TLNTNYHLPPS [MT-ATP8_Y33_M28T]
Out: 0.57

In: Fill in phosphorylation enrichment for record LERFIYNPEEF [HLA-DPB1_Y59_R61P_YF]
Out: 0.618

In: Could you please provide reported phosphorylation enrichment for DFDHSYFFIAT [ESD_Y262_G257D_YF] ? Thanks!
Out: 0.867

In: Fill in phosphorylation enrichment for record ADFPDCKFRPR [SOX11_Y116_Y116C_YF]
Out: 0.391

In: Output measured phosphorylation enrichment for this item: AKKKMYSCKTK [AGXT_Y231_R233C]
Out: 0.529

In: Please report the measured phosphorylation enrichment for VSSPKYGSDDE [TMCC2_Y473]
Out: 0.464

In: Give me measured phosphorylation enrichment, please, for this sequence: EFNLMYHGTKE [IRF6_Y97_D98H]
Out: 0.442

In: State, in one line, measured phosphorylation enrichment of ETKRPYTVILI [SBDS_Y128]
Out: 0.479

In: Using known records, supply phosphorylation enrichment for RVDRDYVLKST [HTATIP2_Y111_A116T]
Out: 0.487

In: Identify phosphorylation enrichment associated with the sequence CEAMEYQESKQ [BTK_Y511_L512Q]
Out: 0.589

In: Retrieve phosphorylation enrichment measured for HLEKKYVRRDS [CSF1R_Y708] and print it.
Out: 6.59

In: Please report the measured phosphorylation enrichment for QEMMEYRRQIQ [DES_Y324_H326R]
Out: 0.455

In: Provide measured phosphorylation enrichment value, entry: ATYRGYDSDNP [MMUT_Y146_H143Y]
Out: 0.365

In: Read the entry TAPFNYSFIFK [RAB14_Y8_YF] and write its reported phosphorylation enrichment.
Out: 2.27

In: Answer with the recorded phosphorylation enrichment for the sequence listed here: WISNRYLDFSS [PRPH2_Y184]
Out: 0.54

In: Quick one: give measured phosphorylation enrichment for SAEKAYHEQFS [TUBA1A_Y282_L286F]
Out: 0.424

In: Note phosphorylation enrichment for the sequence shown: ILGRFYERGSI [PAX5_Y73_T75R_YF]
Out: 0.395

In: Quick one: give measured phosphorylation enrichment for FEDTLYTVLHR [UNC13D_Y61_A59T_YF]
Out: 7.86

In: Give phosphorylation enrichment for the following sequence: VFLARYGPAWR [CYP2D6_Y124]
Out: 0.472

In: Given RDLRTYIMPAH [PNMT_Y256] , respond with its phosphorylation enrichment.
Out: 0.572

In: Give the reported value of phosphorylation enrichment for this record: SPYAVYRFFTF [RPGRIP1_Y826]
Out: 0.797

In: Return phosphorylation enrichment (reported value) for this sequence: RRIHSYRGFLW [VHL_Y112_H115Y_YF]
Out: 0.577

In: Provide measured phosphorylation enrichment value, entry: SEASYYKSLNL [NGEF_Y289]
Out: 0.659

In: // fetch phosphorylation enrichment given entry DFFDLYGGKKF [PTPN11_Y66_E69K_YF]
Out: 0.489

In: Dear colleague, please send me the reported phosphorylation enrichment for EAIMTYVSSFF [ACTN4_Y260_K255E_YF] when you can.
Out: 0.422

In: Given GVTLLCYGRYN [ADGRD1_Y85_Y85C] , respond with its phosphorylation enrichment.
Out: 0.397

In: Quote phosphorylation enrichment reported for SFCFRYRCAAQ [SUMF1_Y344_R349Q_YF] please.
Out: 0.553

In: In one line, give reported phosphorylation enrichment of the entry FSPGSNERETF [NF1_Y2192_Y2192N] .
Out: 0.414

In: Fill in reported phosphorylation enrichment for this entry: QRCFVYFFSFL [PTEN_Y176_R173C_YF]
Out: 0.69

In: Note down phosphorylation enrichment recorded for SVMAEYGLFGA [VSX2_Y219_YF]
Out: 0.475

In: Specify phosphorylation enrichment for DLRTGYSVPFG [TGM1_Y370_Y365D_YF] and stop.
Out: 0.364

In: Supply measured phosphorylation enrichment of AGREIYESEKC [TTN_Y4424_D4427E] in your reply.
Out: 0.547

In: Name the recorded phosphorylation enrichment of the item VAVVDYVEPSP [TXNRD2_Y70] in your answer.
Out: 0.415

In: For the sequence SVESPYGSVTF [NDRG2_Y47_T45S] , give its reported phosphorylation enrichment.
Out: 0.525

In: Quote phosphorylation enrichment reported for ALEKTYNTFRS [B4GALNT2_Y538_YF] please.
Out: 0.382

In: Query phosphorylation enrichment for STGWSYAGVAV [KLHL3_Y577_R575W]
Out: 0.352

----------
Please provide measured phosphorylation enrichment for the entries that follow.
system: c-Src; assay: phosphorylation enrichment, bacterial display (enrichment ratio); higher = better substrate or ligand; peptides without Tyr show the background

In: State, in one line, measured phosphorylation enrichment of HSGIYYKPESL [L2HGDH_Y103]
Out: 3.78

In: Check the records and state phosphorylation enrichment for GMTLSYLFWEP [NDUFS8_Y74_R77W]
Out: 0.659

In: For the sequence RQRTAYFSLDT [CDH1_Y68] , give its reported phosphorylation enrichment.
Out: 0.533

In: Supply reported phosphorylation enrichment belonging to this sequence: LPKVSCVKAID [GLRA1_Y307_Y307C]
Out: 0.386

In: Return reported phosphorylation enrichment. Input sequence: PSRKDYETFQS [CTNND2_Y1154_P1159S_YF]
Out: 0.729

In: Identify phosphorylation enrichment associated with the sequence DFFDLYGGKKF [PTPN11_Y66_E69K_YF]
Out: 3.49

In: Please give measured phosphorylation enrichment of the following entry: WISNRYLDFSS [PRPH2_Y184]
Out: 0.705

In: State its phosphorylation enrichment: GREEFYVHFVG [KAT8_Y90_YF]
Out: 0.693

In: Identify phosphorylation enrichment associated with the sequence RRGTRYMSSRP [RPL21_Y13_F15S]
Out: 0.947

In: State its phosphorylation enrichment for this sequence: EYRFIYMAVQH [PTPN11_Y515_Q510E]
Out: 3.46

In: Dear colleague, please send me the reported phosphorylation enrichment for KLLLKYSFHDA [RNF213_Y4141_V4146A] when you can.
Out: 0.385

In: Provide phosphorylation enrichment value for the following sequence: IGSHAYGDQFR [IDH1_Y135_R132S_YF]
Out: 0.353

In: // Input: YVPSFYHAFSG [ACTN4_Y265_S262P] . Output its phosphorylation enrichment only.
Out: 2.17

In: Return phosphorylation enrichment for the following sequence: AALSAYAAQRP [PTPRN2_Y249]
Out: 0.315
